procedure_text: photoluminescence quantum yield (fraction); solvent given as SMILES
condition_info: in C1COCCO1
endpoint: photoluminescence quantum yield
Format: numeric value only, no unit, no commentary.

>>> value_observed("COc1ncccc1B(O)O")
0.423
>>> value_observed("CCCCCCCCCCCCCCCCOc1cc(C#Cc2ccc3ccccc3c2)c(OCCCCCCCCCCCCCCCC)cc1C#Cc1ccc(C=C(C#N)C#N)cc1")
0.5

Below: the item to evaluate.
Field photoluminescence quantum yield (entry Cc1ccc(C2=C3C=CC(c4ccccc4)=[N+]3[B-](F)(F)n3c2ccc3-c2ccccc2)cc1 ) reads 0.25

----------
procedure_text: photoluminescence quantum yield (fraction); solvent given as SMILES
condition_info: in C1CCCCC1
One threshold, 0.4, splits the recorded photoluminescence quantum yield values: lower ones are Met, equal or higher ones are Not met.

These recorded examples may help you get a feel for the data.
>>> assigned_label("CCN(CC)c1ccc2cc(-c3nc4ccccc4s3)c(=O)oc2c1")
"Not met"
>>> assigned_label("COc1ccc(-c2cc3ccc4cc(-c5ccc(OC)cc5)cc5ccc(c2)c3c45)cc1")
"Met"
>>> assigned_label("C#CCNC1=C2C(C)=CC(C)=[N+]2[B-](F)(F)n2c(C)cc(C)c21")
"Met"
>>> assigned_label("CCCC1(CCC)c2cc(-c3ccc(C(C)(C)C)cc3)ccc2-c2ccc(-c3ccc4c(c3)C(CCC)(CCC)c3cc(-c5ccc(C(C)(C)C)cc5)ccc3-4)cc21")
"Not met"

Strictly below 0.4 in photoluminescence quantum yield? C[Si](C)(C)[Si](C)(C)c1c2ccccc2cc2ccccc12
Not met

Strictly below 0.4 in photoluminescence quantum yield? CC(C)[Si]1(C(C)C)c2cc(C#N)ccc2-c2ccc(N(C)C)cc21
Not met

Strictly below 0.4 in photoluminescence quantum yield? CCC(C)(C)c1ccc2c(c1)C(CC)(CC)c1cc(-c3ccc(-c4ccc5c(c4)C(CC)(CC)c4cc(C(C)(C)CC)ccc4-5)cc3)ccc1-2
Not met

Strictly below 0.4 in photoluminescence quantum yield? CCN(CC)c1ccc2c(c1)oc(=O)c1c(C)nc3c(c(-c4ccccc4)nn3-c3ccccc3)c12
Not met

Strictly below 0.4 in photoluminescence quantum yield? COc1cccc(/C=C/c2ccccc2)c1
Met

Strictly below 0.4 in photoluminescence quantum yield? CNc1cccc2c1-c1ccccc1C2=O
Met

Strictly below 0.4 in photoluminescence quantum yield? NCc1ccc2ccc3cccc4ccc1c2c34
Met

Strictly below 0.4 in photoluminescence quantum yield? COc1ccccc1
Met

Strictly below 0.4 in photoluminescence quantum yield? [C-]#[N+]c1ccc(-c2ccc(NC)cc2)cc1
Not met

Strictly below 0.4 in photoluminescence quantum yield? CN(C)c1ccc(C#Cc2ccccc2)cc1
Met

Strictly below 0.4 in photoluminescence quantum yield? COc1ccc(-c2ccc(OC)cc2)cc1
Met

Strictly below 0.4 in photoluminescence quantum yield? CC1=N/C(=C\c2ccccc2N)C(=O)N1C
Met

Strictly below 0.4 in photoluminescence quantum yield? C[Si](C)(C)C#Cc1ccc(C#C[Si](C)(C)C)c2ccccc12
Not met

Strictly below 0.4 in photoluminescence quantum yield? C[Si](C)(C)C#Cc1ccc2c3cccc4cccc(c5cccc1c52)c43
Not met

Strictly below 0.4 in photoluminescence quantum yield? COC(=O)C(Cc1ccc2oc(-c3ccc(N(c4ccccc4)c4ccccc4)cc3)nc2c1)NC(=O)OC(C)(C)C (stereo unspecified)
Not met

Strictly below 0.4 in photoluminescence quantum yield? Cc1ccc(C2=C3C=CC=[N+]3[B-](F)(F)n3cccc32)cc1
Met

Strictly below 0.4 in photoluminescence quantum yield? Brc1c(Br)c2ccc3c(Br)c(Br)c4ccc5ccc1c1c5c4c3c21
Met

Reference source for all entries: the Deep4Chem optical property database
